# assayRemarks: Wnt/beta-catenin pathway activators, primary screen, cell-based, plate reader, single point (AID 743398);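 note: 0% = neutral control wells and 100% = positive control wells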
# assayConditions: Wnt/beta-catenin reporter cell assay, activator, at 9.35 µM
Among all 300,000 compounds or so, about 3,600 (1.2%) were called active. Cut-off read from the data, not from the text of the source: active = activation above about 30% (passing the limit was not always enough); inconclusive = no clear call, values can overlap the other calls. The full list was thinned out, with actives kept by preference.
Returns: one label drawn from active, inactive

Query: Dear colleague, could you share the recorded outcome for O=c1[nH]c(-c2ccccc2)cn1C1CCN(Cc2ccc(-c3nc4ccc(F)cc4nc3-c3ccccc3)cc2)CC1 when you have a moment?
Result: inactive

Query: Dear colleague, could you share the recorded outcome for CCOC(=O)N1CCN(C(=O)C[C@@H]2C[C@@]3(C(=O)OC)CCCCC=C3N(CCC3=CCCCC3)C2=O)CC1 when you have a moment?
Result: inactive

Query: Dear colleague, could you share the recorded outcome for Cc1ccc(NC(=O)Nc2nnc(-c3ccncc3)s2)cc1 when you have a moment?
Result: inactive

Query: Dear colleague, could you share the recorded outcome for CC1(Oc2cccc(F)c2)CCN(Cc2ccccc2OC(F)F)C1 (stereo not given) when you have a moment?
Result: inactive

Query: Dear colleague, could you share the recorded outcome for Cc1ccc(NC(=O)Nc2cccnc2)cc1 when you have a moment?
Result: inactive

Query: Dear colleague, could you share the recorded outcome for O=C1Nc2ccccc2NC(c2ccc3c(c2)OCO3)=C1N(Cc1ccc(F)cc1)C(=O)c1ccco1 when you have a moment?
Result: inactive

Query: Dear colleague, could you share the recorded outcome for CCCNC(=O)C1(C)CCCN(Cc2cccc(C(F)(F)F)c2)C1 (stereo not given) when you have a moment?
Result: inactive

Query: Dear colleague, could you share the recorded outcome for COc1ccc(CNC(=O)c2ccc(-c3cccnc3)c3ccoc23)cc1OC when you have a moment?
Result: inactive

Query: Dear colleague, could you share the recorded outcome for Cc1ccc(NC(=O)Nc2ccc3oc(C)nc3c2)cc1 when you have a moment?
Result: active

Query: Dear colleague, could you share the recorded outcome for CCOC(=O)[C@]12CCCC=C1N(Cc1cccc3ccccc13)C(=O)[C@H](CC(=O)NCC13CC4CC(CC(C4)C1)C3)C2 when you have a moment?
Result: inactive

----------
# assayRemarks: Wnt/beta-catenin pathway activators, primary screen, cell-based, plate reader, single point (AID 743398);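 note: 0% = neutral control wells and 100% = positive control wells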
# assayConditions: Wnt/beta-catenin reporter cell assay, activator, at 9.35 µM, active compounds read high
Hit rate of the full screen: of about 300,000 compounds, about 3,600 (1.2%) were called active. What follows is part of a selection rich in actives, with near analogues and random picks from the rest.
observable: activation (%)
Quick note: give the figure in %, leave out the unit.

Please fill in: activation reported for C=CCSc1nc2ccccc2[nH]1 = 0.251

Please fill in: activation reported for CCCCCCN1C[C@H](O)[C@@H](n2cc(C3CC3)nn2)C[C@@H]1c1ccc(Cl)cc1 = 0.514

Please fill in: activation reported for COc1ccc(/C=N/NS(=O)(=O)c2ccc(NC(C)=O)cc2)cc1 = 0.428

Please fill in: activation reported for CCOC(=O)N1CCN(C(=O)COc2ccc3oc4c(c3c2)CCCC4)CC1 = -0.344

Please fill in: activation reported for COc1ccc(C(=O)Nc2ccccc2C(=O)N/N=C/c2ccc(O)c(OC)c2)cc1 = -6.14

Please fill in: activation reported for COc1ccc(/C=N/Nc2ccccc2C(=O)O)cc1 = 42.5

----------
# assayRemarks: Wnt/beta-catenin pathway activators, primary screen, cell-based, plate reader, single point (AID 743398);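 note: 0% = neutral control wells and 100% = positive control wells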
# assayConditions: Wnt/beta-catenin reporter cell assay, activator, at 9.35 µM
The campaign covered roughly 300,000 compounds. About 3,600 (1.2%) were called active. No stated cut-off is given here; in the data, active means activation above about 30% (passing the limit was not always enough); inconclusive means no clear call, values can overlap the other calls. This excerpt belongs to a sample that is enriched for actives.
Returns: one label drawn from yes (active), no (inactive)

Query: Dear colleague, could you share the recorded outcome for O=C(Nc1nnc(C2CC2)s1)c1ccccn1 when you have a moment?
Result: no

Query: Dear colleague, could you share the recorded outcome for CN1CCCCC(NC(=O)C(C)(C)C)C1=O (configuration not stated) when you have a moment?
Result: no

Query: Dear colleague, could you share the recorded outcome for O=C(O)c1cc([N+](=O)[O-])c(Nc2cccc3ccccc23)c([N+](=O)[O-])c1 when you have a moment?
Result: no

Query: Dear colleague, could you share the recorded outcome for Nc1ccc(-c2nnc(-c3ccccc3)o2)cc1 when you have a moment?
Result: no

Query: Dear colleague, could you share the recorded outcome for O=C(CNC(=O)c1ccccc1)Oc1ccc([N+](=O)[O-])cc1 when you have a moment?
Result: no

Query: Dear colleague, could you share the recorded outcome for O=C(COc1ccc(Br)cc1F)NCC1(N2CCCCC2)CCCCC1 when you have a moment?
Result: no

Query: Dear colleague, could you share the recorded outcome for Cc1ccc(C(=O)CSc2nnc(Cn3nnc4ccccc43)n2C)cc1 when you have a moment?
Result: no

Query: Dear colleague, could you share the recorded outcome for O=C(NCc1ccccc1)[C@H]1CCCN1C(=O)[C@@H]1CCCN1C(=O)c1ccc(Cl)cc1Cl when you have a moment?
Result: no

Query: Dear colleague, could you share the recorded outcome for COc1ccc(C2Nc3ccccc3C(=O)N2Cc2ccccc2)cc1Cn1nnc2ccccc21 (configuration not stated) when you have a moment?
Result: no

Query: Dear colleague, could you share the recorded outcome for Cc1cnc(NC(=O)c2ccc(Cl)nc2)s1 when you have a moment?
Result: no

Query: Dear colleague, could you share the recorded outcome for O=C(Nc1ccc2ccccc2c1[N+](=O)[O-])c1ccccc1 when you have a moment?
Result: yes

Query: Dear colleague, could you share the recorded outcome for COc1ccc(N2C(=O)c3ccccc3NC2c2ccc(OC)c(CN3CCOCC3)c2)cc1 (configuration not stated) when you have a moment?
Result: no

Query: Dear colleague, could you share the recorded outcome for CCCCN1Cc2c(nc3cc(-c4ccccc4)[nH]n3c2=O)C1=O when you have a moment?
Result: no

Query: Dear colleague, could you share the recorded outcome for CC1(C)OC(=O)C2=C(C[C@@H](C3CCCC3)O[C@@H]2c2ccc(Cl)cc2)O1 when you have a moment?
Result: no

Query: Dear colleague, could you share the recorded outcome for CCOC(=O)[C@]12CCCC=C1N(CCC1=CCCCC1)C(=O)[C@H](CC(=O)N1CCN(C(=O)c3ccco3)CC1)C2 when you have a moment?
Result: no

Query: Dear colleague, could you share the recorded outcome for O=C(/C=C/c1ccccc1)Nc1nnc(SCC(=O)c2ccc3ccccc3c2)s1 when you have a moment?
Result: no

Query: Dear colleague, could you share the recorded outcome for Fc1cccc(Cc2c(-c3cccc(Cl)c3)nc3ccc(Br)cn23)c1 when you have a moment?
Result: no

Query: Dear colleague, could you share the recorded outcome for Cn1c(CNC(=O)c2ccccc2F)nnc1SCc1ccc(F)cc1 when you have a moment?
Result: no

Query: Dear colleague, could you share the recorded outcome for Cc1cnc(NC(=O)c2ccccn2)s1 when you have a moment?
Result: yes

Query: Dear colleague, could you share the recorded outcome for CC(=O)c1ccc(Nc2nc(C(N)c3ccccc3Cl)cs2)cc1 (configuration not stated) when you have a moment?
Result: no

Query: Dear colleague, could you share the recorded outcome for NC(=O)CSc1nnc(NC(=O)c2ccc3ccccc3c2)s1 when you have a moment?
Result: yes

Query: Dear colleague, could you share the recorded outcome for Cc1nc2c(OCc3ccc(Cl)cc3Cl)cccn2c1N(C)CC1CC1 when you have a moment?
Result: no

----------
# assayRemarks: Wnt/beta-catenin pathway activators, primary screen, cell-based, plate reader, single point (AID 743398);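 note: 0% = neutral control wells and 100% = positive control wells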
# assayConditions: Wnt/beta-catenin reporter cell assay, activator, at 9.35 µM, active compounds read high
Out of some 300,000 compounds screened, about 3,600 (1.2%) were called active. Only a selection was taken, and actives are over-represented in it overall.
Task for the reader: assign each of the following compounds its reported activation.
Quick note: give the figure in %, leave out the unit.

Please fill in: activation reported for Cn1c(-c2ccc(F)cc2)cc2onc(-c3ccccc3Cl)c2c1=O = 53.3

Please fill in: activation reported for COc1ccccc1OCC(=O)O/N=C(\N)c1ccccn1 = 55.9

Please fill in: activation reported for COC(=O)C1=C(C)N(Cc2cccc(C(F)(F)F)c2)C(=NCc2ccccc2)NC1c1ccc(Cl)cc1 (stereo not given) = -31.1

Please fill in: activation reported for Cn1c(-c2ccc(C(F)(F)F)cc2)cc2onc(-c3ccccc3)c2c1=O = 23.3

Please fill in: activation reported for O=C(Nc1ccc(Cl)cc1)C1Cc2c(-c3ccc4c(c3)OCO4)ccnc2O1 (stereo not given) = -2.4

Please fill in: activation reported for COC(=O)c1c(-c2ccc(OC)cc2)c2c(c3c4cc(OC)ccc4n(S(=O)(=O)c4ccc(F)cc4)c13)C(=O)N(C)C2 = -8.37

Please fill in: activation reported for Cc1[nH]n(C)c(=O)c1C(=O)c1c(-c2c(Cl)cccc2Cl)noc1C = 4.17

Please fill in: activation reported for O=C(Cc1nc2ccccc2[nH]c1=O)c1ccc(Cl)cc1 = 52.5

Please fill in: activation reported for CN1C(=O)C2CC(O)C(SC3CC4C(=O)N(C)C(=O)C4CC3O)CC2C1=O (stereo not given) = -1.16

Please fill in: activation reported for CSCCC(C(=O)NC(C)(C)C)n1c(-c2ccccc2)nc2ccccc21 (stereo not given) = 2.95
